System: Acyclovir-resistant HSV-1 (F) mutants
Test: microbe, parasite or virus in culture
Type: cell-based, herpes simplex virus 1
Details: Human alphaherpesvirus 1, read-out: IC50 Acyclovir-resistant HSV-1 (F) mutants
metric: IC50 (µM)
Record the value in µM, omitting the unit from your answer.

Query string: What IC50 value was documented for this compound, Nc1nc2c(ncn2COCCO)c(=O)[nH]1 [Acyclovir, acyclovir, reference compound] ?
Result string: 125

###

Target: HSV-1 helicase-primase heterodimer enzyme complex (UL5-UL52-6xHis) (Human herpesvirus 1, UniProt P10189+P10236)
Sequence (P10236 whole entry): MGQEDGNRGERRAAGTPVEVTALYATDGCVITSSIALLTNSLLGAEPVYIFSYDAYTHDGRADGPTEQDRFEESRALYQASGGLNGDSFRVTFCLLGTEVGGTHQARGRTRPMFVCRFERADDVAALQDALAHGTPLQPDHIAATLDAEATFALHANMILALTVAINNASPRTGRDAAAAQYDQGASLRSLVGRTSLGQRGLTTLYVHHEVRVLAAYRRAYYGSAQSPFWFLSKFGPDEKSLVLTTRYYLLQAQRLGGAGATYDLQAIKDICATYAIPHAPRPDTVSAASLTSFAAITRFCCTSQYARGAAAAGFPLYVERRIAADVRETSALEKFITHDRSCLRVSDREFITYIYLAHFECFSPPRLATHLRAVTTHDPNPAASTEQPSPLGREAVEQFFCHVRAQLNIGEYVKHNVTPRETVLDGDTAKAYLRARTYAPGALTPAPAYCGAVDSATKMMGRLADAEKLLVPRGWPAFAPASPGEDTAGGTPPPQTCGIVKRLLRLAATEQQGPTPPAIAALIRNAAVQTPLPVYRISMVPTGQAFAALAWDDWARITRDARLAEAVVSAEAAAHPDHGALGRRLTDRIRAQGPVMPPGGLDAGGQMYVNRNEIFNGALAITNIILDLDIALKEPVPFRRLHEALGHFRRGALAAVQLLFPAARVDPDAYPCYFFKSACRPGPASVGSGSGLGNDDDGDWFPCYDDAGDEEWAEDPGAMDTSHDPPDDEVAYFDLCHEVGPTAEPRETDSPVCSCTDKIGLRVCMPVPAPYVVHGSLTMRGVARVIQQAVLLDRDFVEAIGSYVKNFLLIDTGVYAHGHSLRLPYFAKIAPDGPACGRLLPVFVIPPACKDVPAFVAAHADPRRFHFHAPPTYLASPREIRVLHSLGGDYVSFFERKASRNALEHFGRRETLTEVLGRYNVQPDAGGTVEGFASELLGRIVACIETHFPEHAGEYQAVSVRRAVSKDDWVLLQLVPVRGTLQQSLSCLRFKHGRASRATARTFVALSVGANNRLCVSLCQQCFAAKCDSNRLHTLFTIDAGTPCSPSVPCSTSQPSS
Sequence (P10189 whole entry): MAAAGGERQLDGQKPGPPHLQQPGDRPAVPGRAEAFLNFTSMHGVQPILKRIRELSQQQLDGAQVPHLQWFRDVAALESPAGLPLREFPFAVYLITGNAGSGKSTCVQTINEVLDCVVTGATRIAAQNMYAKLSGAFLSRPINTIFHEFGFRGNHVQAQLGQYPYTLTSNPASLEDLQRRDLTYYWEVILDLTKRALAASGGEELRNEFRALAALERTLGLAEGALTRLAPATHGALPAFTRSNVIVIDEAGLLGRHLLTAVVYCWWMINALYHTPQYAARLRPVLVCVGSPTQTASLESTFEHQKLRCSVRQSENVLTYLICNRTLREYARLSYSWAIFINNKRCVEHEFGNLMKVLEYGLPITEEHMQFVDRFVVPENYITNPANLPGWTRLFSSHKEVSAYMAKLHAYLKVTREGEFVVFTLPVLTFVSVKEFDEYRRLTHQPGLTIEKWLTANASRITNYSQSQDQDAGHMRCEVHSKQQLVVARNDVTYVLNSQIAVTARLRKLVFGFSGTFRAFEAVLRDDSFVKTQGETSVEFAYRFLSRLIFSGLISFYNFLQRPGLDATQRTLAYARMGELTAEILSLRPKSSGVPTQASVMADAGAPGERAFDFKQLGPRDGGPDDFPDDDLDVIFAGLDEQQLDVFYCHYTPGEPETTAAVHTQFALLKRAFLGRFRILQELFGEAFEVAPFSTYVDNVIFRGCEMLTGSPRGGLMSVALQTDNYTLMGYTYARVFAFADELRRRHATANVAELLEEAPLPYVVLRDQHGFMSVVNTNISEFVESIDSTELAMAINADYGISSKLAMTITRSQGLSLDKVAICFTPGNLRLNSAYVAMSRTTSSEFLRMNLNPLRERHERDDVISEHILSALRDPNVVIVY
Assay: HSV-1 DNA-dependent ATPase assay
Conditions: read-out: in vitro ATPase inhibition wild-type HSV-1 (F) Ki; nonlinear curve regression
metric: Ki (nM)
Record the value in nM, omitting the unit from your answer.

Query string: What Ki value was documented for this compound, Cc1nc(N(C)C(=O)Cc2ccc(-c3cc(F)ccc3F)cc2)sc1S(N)(=O)=O ?
Result string: 7

Data origin: patent US20020160932A1
